Data provenance is a melting point compilation (Tetko et al.; mined from patent text by program, amines drawn as free bases though some values may be those of a salt).

Attribute: melting point

Reference set, count: 3
• CC(C)(C)OC(=O)Nc1cc(N2CCC3(CC2)OCCO3)c(C#Cc2ccccc2)cc1[N+](=O)[O-] = 179 to 180 °C
• CC(=O)CCc1ccc(C(=O)c2ccc(F)cc2)cc1 = 67 to 68 °C
• CC(C)n1nc(-c2cnc(N)nc2-c2c(F)cccc2F)ccc1=O = 244 °C

-- ask Answer with the recorded melting point of CCNc1cn(-c2cccnc2)nc1Cl only.
-- reply 89 to 90 °C

-- ask Answer with the recorded melting point of CC1(C)CCC(C)(C)c2cc([N+](=O)[O-])c([N+](=O)[O-])cc21 only.
-- reply 200 °C
